# Assay: Cytotoxic Profiling in NIH 3T3 Cell Line of Diverse Libraries Using Quantitative High-Throughput Screening; also: nearly all actives have a fitted effect of over 55% in size; also: potency is read from the fitted curve at half-maximal effect
# Setup Conditions: NIH 3T3 viability, CellTiter-Glo ATP luminescence, 48-72 h; series mostly up to 96.7 µM
Screen size: about 94,000 compounds; about 4,000 (4.3%) were called active. Inconclusive results (about 29%) are left out. Shown is part of a subset that was picked to be rich in actives.
Assay Readout: Potency

The following molecules have reported results that may help.
- Molecule: "CCn1nccc1C(=O)N1CCCCCC1c1nc(C2CC2)no1 (stereo unspecified)"
  Assay Readout: "Potency"
  Readout Value: "inactive"
- Molecule: "O=C(c1cccs1)N1CCOCC2(CN(Cc3cc(F)cc(F)c3)C2)C1"
  Assay Readout: "Potency"
  Readout Value: "inactive"
- Molecule: "Cc1cccc(Cn2c(-c3ccc(F)cc3)nc(C)c(CCO)c2=O)c1"
  Assay Readout: "Potency"
  Readout Value: "inactive"
- Molecule: "O=c1[nH]c(C2CCN(Cc3ccccc3)CC2)nc2ccc(F)cc12"
  Assay Readout: "Potency"
  Readout Value: "inactive"
- Molecule: "CC(=O)N1CCC2(CC1)CN(C(=O)Cc1cccc(Cl)c1)CCO2"
  Assay Readout: "Potency"
  Readout Value: "inactive"

## Input Return Potency for the following molecule: "O=C(Cc1ccc(F)cc1)N1CCOCC2(CN(Cc3ccccc3)C2)C1"
## Output 35.5 µM (active)

----------
# Assay: Cytotoxic Profiling in NIH 3T3 Cell Line of Diverse Libraries Using Quantitative High-Throughput Screening; also: nearly all actives have a fitted effect of over 55% in size; also: potency is read from the fitted curve at half-maximal effect
# Setup Conditions: NIH 3T3 viability, CellTiter-Glo ATP luminescence, 48-72 h; series mostly up to 96.7 µM
Among all 94,000 compounds or so, about 4,000 (4.3%) were called active. About 29% were inconclusive and are not listed. Shown is part of a subset that was picked to be rich in actives.
Assay Readout: Potency

The following molecules have reported results that may help.
- Molecule: "Cc1ccc(-c2noc([C@@H]3Cc4nc[nH]c4CN3Cc3cccc(C#N)c3)n2)cc1"
  Assay Readout: "Potency"
  Readout Value: "100 µM (active)"
- Molecule: "N[C@@H]1CC[C@H](C(=O)N2CCN(CCCOc3ccc(F)cc3)CC2)C1"
  Assay Readout: "Potency"
  Readout Value: "inactive"
- Molecule: "CC(=O)Nc1ccc(NC(=O)Cn2nc3c(cc2=O)CCCCC3)cc1"
  Assay Readout: "Potency"
  Readout Value: "inactive"
- Molecule: "Cn1cc(CN2CCOC[C@H]2c2ncc(-c3cccc(F)c3)[nH]2)c2ccccc21"
  Assay Readout: "Potency"
  Readout Value: "39.8 µM (active)"
- Molecule: "Cc1noc(C)c1[S+](=O)([O-])N1CCCC2(CC(Cc3ccccc3)=NO2)C1 (stereo unspecified)"
  Assay Readout: "Potency"
  Readout Value: "inactive"

## Input Return Potency for the following molecule: "c1cncc(-c2cnc([C@@H]3COCCN3Cc3cnc4ccccc4c3)[nH]2)c1"
## Output inactive

## Input Return Potency for the following molecule: "Cc1ccc(S(=O)(=O)Nc2ccc(C)n(CC(=O)NCc3cccc(F)c3)c2=O)cc1"
## Output inactive

## Input Return Potency for the following molecule: "COc1cccc(CN2CC3(C2)C(=O)N(Cc2ccccc2F)C(=O)[C@@H]2C[C@@H](O)CN23)c1"
## Output inactive

## Input Return Potency for the following molecule: O=S(=O)(NCC1CNCCOC1)c1ccc(F)c(F)c1F (stereo unspecified)
## Output inactive

## Input Return Potency for the following molecule: "Cn1ncc2c(C(=O)NCC(F)(F)F)cc(-c3ccccc3F)nc21"
## Output inactive

## Input Return Potency for the following molecule: "Cc1noc(C)c1-c1cc2cc(CNC3CCOCC3)oc2c(NC2CCN(C)CC2)n1"
## Output 39.8 µM (active)

## Input Return Potency for the following molecule: "CN(C)c1ccc(CN2CCOC[C@H]2c2ncc(-c3cccc(F)c3)[nH]2)cc1"
## Output inactive

## Input Return Potency for the following molecule: "Oc1ccccc1CN1CCOC[C@H]1c1ncc(-c2ccc(C(F)(F)F)cc2)[nH]1"
## Output 50.1 µM (active)

## Input Return Potency for the following molecule: COCCc1noc(C2Cc3ccccc3N2C(=O)NCc2ccco2)n1 (stereo unspecified)
## Output inactive
